# system: KRas G12D/Q61H double mutant (Homo sapiens (Human), UniProt P01116, G12D/Q61H)
# Sequence (P01116-2 other isoform, or with tags, fused parts or gaps G12D/Q61H): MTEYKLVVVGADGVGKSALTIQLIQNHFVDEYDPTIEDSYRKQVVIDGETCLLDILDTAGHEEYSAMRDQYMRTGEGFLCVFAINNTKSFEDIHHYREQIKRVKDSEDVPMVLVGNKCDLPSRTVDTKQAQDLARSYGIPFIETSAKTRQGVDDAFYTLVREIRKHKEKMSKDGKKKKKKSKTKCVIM
# run_description: Ras GTP binding domain inhibition assay (labeled GTP)
# run_parameters: 20 μM compound; KRas G12D/Q61H double mutant; read-out: % Inhibition at 20 μM of K-Ras mutant and wild-type protein, KRas G12D Q61H
# Experimental: Buffer-I: • 50 mM Tris, pH 7.5 • 150 mM NaCl (optional) • 1 mM MgCl2 • 1 mM DTT. • KRas G12D mutant protein was expressed as a His-tagged protein. […] Then 22 μl of Cy3-GTP or Cy5-GTP was added to each well. The labeled GTP was incubated for 45 min. at room temperature. • Following GTP incubation, wells were washed 3× in Buffer-I, and 200 μl of Buffer-I were added to each well. • Following washes, the amount of bound labeled-GTP was measured with an Eppendorf AF2200 plate reader. […]
parameter: inhibition at 20 µM

                                   compound            parameter  reported_value
0    COc1cnc(C2(N)CCCC2)nc1O [drawing 3490]  inhibition at 20 µM        1 to 25%
1  CCCc1cc(=O)oc2cc(OCc3cc(C(=O)OC)c(C)o3)ccc12  inhibition at 20 µM       25 to 50%
2  CC1CCC(NS(=O)(=O)CC(=O)N2CCCC2Cc2ccccc2Cl)CC1 (stereo not shown)  inhibition at 20 µM       25 to 50%
3  COc1c(O)nc(-c2ccccn2)nc1Oc1cccc(C(F)(F)F)c1 [drawing 3557]  inhibition at 20 µM       51 to 75%
4  Cc1ccc(CN(Cc2ccco2)C(=O)C(c2ccccc2)c2ccccc2)o1  inhibition at 20 µM       25 to 50%
5  Cc1c(-c2csc3c(O)nc(-c4ccccn4)nc23)cnn1C [drawing 3505]  inhibition at 20 µM       51 to 75%
6  CC(C)c1ccc(CSc2nnc(SCCNC(=O)C3CCCC3)s2)cc1  inhibition at 20 µM       51 to 75%
7  O=C(c1ccc(CSc2nc3ccccc3[nH]2)cc1)N1N=CCC1(O)C(F)(F)F (stereo not shown)  inhibition at 20 µM       25 to 50%
8  O=c1c(Cl)cc(C(F)(F)F)cn1Cc1csc(COc2ccc(Cl)cc2)n1  inhibition at 20 µM        1 to 25%
9  Cc1ccccc1OCCN(C)c1ccc([N+](=O)[O-])c(OC(F)F)c1  inhibition at 20 µM       25 to 50%

====

# system: KRas G12D/Q61H double mutant (Homo sapiens (Human), UniProt P01116, G12D/Q61H)
# run_description: Ras GTP binding domain inhibition assay (labeled GTP)
# run_parameters: at 20 μM; read-out: KRas G12D Q61H % Inh.
// reported inhibition at 20 µM per item
parameter: inhibition at 20 µM

>>> print(df.to_string())
                                    compound            parameter  reported_value
 0  COc1ccc(C2CN(C(=O)c3csc4c(O)nc(-c5ccccn5)nc34)CCN2)cc1 (stereo not drawn) [drawing 3663]  inhibition at 20 µM        1 to 25%
 1  Oc1nc(-c2ccccn2)nc2c(-c3ccccc3)c(-c3ccncc3)sc12 [drawing 3866]  inhibition at 20 µM              0%
 2  O=C(CCc1cncnc1)Nc1nc(-c2ccccn2)nc2sccc12 [drawing 3763]  inhibition at 20 µM       51 to 75%
 3  COc1ccc2c(c1)CCC2C(=O)Nc1ccnc(-c2ccccn2)n1 (stereo not drawn) [drawing 3684]  inhibition at 20 µM        1 to 25%
 4  COCCNc1nc(-c2nccn2C)nc2sc(-c3ccccc3)c(-c3ccccc3)c12 [drawing 3853]  inhibition at 20 µM       51 to 75%
 5  COc1ccc(CCNC(=O)c2csc3nc(-c4ccccn4)nc(N4CCS(=O)(=O)CC4)c23)cn1 [drawing 3725]  inhibition at 20 µM       25 to 50%
 6  O=C(NCCc1cccnc1)c1csc2nc(-c3ccccn3)nc(N3CCOCC3)c12 [drawing 3633]  inhibition at 20 µM        1 to 25%
 7  Cn1nnc2ccc(-c3csc4c(O)nc(-c5ccccn5)nc34)cc21 [drawing 3733]  inhibition at 20 µM       51 to 75%
 8  Nc1nc(O)c2sc(-c3cccc(C(=O)NCc4ncc[nH]4)c3)cc2n1 [drawing 3863]  inhibition at 20 µM              0%
 9  O=C(c1csc2c(O)nc(-c3ccccn3)nc12)N1CCNC(Cc2ccccc2)C1 (stereo not drawn) [drawing 3667]  inhibition at 20 µM       25 to 50%
10  CC(C)c1nn(C)cc1-c1csc2c(O)nc(-c3ccccn3)nc12 [drawing 3820]  inhibition at 20 µM       51 to 75%
11  O=C(c1csc2c(O)nc(-c3ccccn3)nc12)N1CCN(c2ccc(F)cc2F)CC1 [drawing 3649]  inhibition at 20 µM       51 to 75%
12  COc1ccc(-c2cc3nc(-c4ccccn4)nc(O)c3s2)cc1 [drawing 3881]  inhibition at 20 µM        1 to 25%
13  O=C(NCCc1cncs1)c1csc2nc(-c3ccccn3)nc(N3CCOCC3)c12 [drawing 3638]  inhibition at 20 µM        1 to 25%
14  CC(C(=O)Nc1ccnc(-c2ccccn2)n1)c1ccc(C#N)cc1 (stereo not drawn) [drawing 3683]  inhibition at 20 µM        1 to 25%
15  COCC(C)Nc1nc(-c2ccccn2)nc2sc(-c3ccncc3)c(-c3ccccc3)c12 (stereo not drawn) [drawing 3859]  inhibition at 20 µM       51 to 75%
16  O=C(c1csc2c(O)nc(-c3ccccn3)nc12)N1CCOC(CN2CCOCC2)C1 (stereo not drawn) [drawing 3694]  inhibition at 20 µM        1 to 25%
17  N#Cc1cccc(-c2csc3c(O)nc(-c4ccccn4)nc23)c1 [drawing 3822]  inhibition at 20 µM        1 to 25%
